Source: ChEMBL document CHEMBL1143668

Test system: KB 3-1
Experiment: Reversal of P-gp-mediated multidrug resistance to Cytotoxicity of colchicine against human KB-3-1 cells at 5 uM after 68 hrs by MTT assay
Format: functional, cell-based
Conditions: KB 3-1, 68 h
Rule: IC50 below 6 nM gives yes, anything at or above gives no.

Example entries begin here.
• CC1(C)O[C@@H]2CC[C@](C)(O)[C@H](CCC3C(CO)=CCC4C(CC[C@@]4(C)O)C3(C)C)[C@@]2(C)CCC1=O (stereo partly drawn) = no
• CC1=C(CC[C@@H]2[C@@]3(C)CC[C@@H](O)C(C)(C)O[C@@H]3CC[C@]2(C)O)[C@](C)(C/C=C/C(C)(C)O)[C@H](O)CC1 [SIPHONELLINOL C] = no
• CC1(C)O[C@@H]2CC[C@](C)(O)[C@H](CCC3C(C=O)=CCC4C(CC[C@@]4(C)O)C3(C)C)[C@@]2(C)CCC1=O (stereo partly drawn) = yes
• CC1=CCC2C(CC[C@@]2(C)O)C(C)(C)C1CC[C@@H]1[C@@]2(C)CC[C@@H](O)C(C)(C)O[C@@H]2CC[C@]1(C)O (stereo partly drawn) [SIPHOLENOL A] = yes
• CC1(C)O[C@@H]2CC[C@](C)(O)[C@H](CC[C@@]34O[C@]3(C)[C@H](O)CC3C(CC[C@@]3(C)O)C4(C)C)[C@@]2(C)CC[C@H]1O (stereo partly drawn) [SIPHOLENOL I] = no
• CC1=CCC2C(CC[C@@]2(C)O)C(C)(C)C1CC[C@@H]1[C@@]2(C)CCC(=O)C(C)(C)O[C@@H]2CC[C@]1(C)O (stereo partly drawn) [SIPHOLENONE A] = yes

Request: Lab log: compare recorded IC50 with 6 nM; is it strictly lower for CC1(C)C(CC[C@@H]2[C@@]3(C)CC[C@@H](O)C(C)(C)O[C@@H]3CC[C@]2(C)O)C(C=O)=CCC2C1CC[C@@]2(C)O (stereo partly drawn) ?
Result: yes
